Assay: label from the status in PepcDB records

{"sequence.entry": "MRAMRLVEIGKPLKLEDIPIPKPKGSQVLIKIEAAGVCHSDVHMRQGRFGNLRIVEDLGVKLPVTLGHEIAGRIEEVGDEVVGYSKGDLVAVNPWEGEGNCYYCRIGEEHLCDSPRWLGINYDGAYAEYVLVPHYKYLYKLRRLSAVEAAPLTCSGVTTYRAVRKASLDPSKTLVVIGAGGGLGTMAIQIAKAVSGATIIGVDVREEALEAAKRAGADYVINASSQDPVSEIRRITQGKGADAVIDLNNSEKTLSIYPYVLAKQGKYVMVGLFGADLKYHAPLITLNEVQFIGSLVGNQSDFLGIMSLAEAGKVKPMVTKTMKLEEANEAIDNLENFKAVGRQVLVP", "protein production": "not failed"}
{"sequence.entry": "MMAEGGAADLDTQRSDIATLLKTSLRKGDTWYLVDSRWFKQWKKYVGFDSWDKYQMGDQNVYPGPIDNSGLLKDGDAQSLKEHLIDELDYILLPTEGWNKLVSWYTLMEGQEPIARKVVEQ", "protein production": "not failed"}

====

Assay: label from the status in PepcDB records
endpoint.label: protein production

The cases that follow already have their protein production on record.
{"sequence.entry": "GFAAYIWGSDFSFEVSAYAVAEREVPVADWVLRRIVPYRKCYGIDPEEFSSYRNAADSEIFMAYLDDQPVGHVVVSTNWNGYAHIDELAVHAPARRHGVARALLDVAQFWSRRKKLPGMMLETQNNNLGACRLYEQCGYVVGGVDHLRYRGIDPQTAEVAIFWYRLFANELE", "test.value": "failed"}
{"sequence.entry": "MEYIKPHKGFSTLIILGITLGIDLIFSLLSTFINTYIVLRILEIFIVFFNIYQLYYILKSLTLKYCYDNENFYVLWCFGIRRVTIPFKEIEAYNVSHGEIKGVKLWGYGRNFFALGTFSVNDIGIVNMFVTATKNVIYIKCNSSIYGISPEKCDEVKNFLEKRKLVLKNWTYEKRNKVSLSKDRHFDILIFLISIVILMVTIIPFILYLRGVMPHKMPLSFDSNFKPMIYGTSREFAFKHMMYGAYNMIIFFCIYYSAYFYARYSKKLAYRLMYISFLVAFIFLIFQFKIYVTYIH", "test.value": "failed"}
{"sequence.entry": "MLETDLEARMQILRESGFQESQGDDDTFAQRAEWFYQGRPLLLSLCLDLYNGYVTLLGRSSHQTRLKPTTSLPNQLLQDDDDCISDIDSVSEVSSEVESTLSFQQMKDPTAVSEKVDELVSQLVTASLDKEILKHELLHKDQQFHEASKTIELLKKFVMLLEMEKEVAVEENANLGYKLTSLLEENRELATEALFMKNEAVGLARCVLKMRDDHFHKVCILQNRIYSLQASRNSEPVSDKVSYGCFGLDKHKTKKKKENKTEEKKPGFKWLKKLNTINLFTKCSLNPSAAAPSCCTFDLPY", "test.value": "failed"}
{"sequence.entry": "AQSDGWSPKDHNLIKSVREDGRFLSSYGVVHAMLRNTEPRYAFHRDFSPKEFRKWQKGLRHAMEEIMKFPQIKNSPAPVCIKREQREGYRLEKWEFYPLPKCVSTFLVLIPDNINKPVPAILCIPGSGGNKEGLAGEPGIAPKLNDRYKDPKLTQALNFVKEGYIAVAVDNPAAGEASDLERYTLGSNYDYDVVSRYLLELGWSYLGYASYLDMQVLNWMKTQKHIRKDRIVVSGFSLGTEPMMVLGTLDTSIYAFVYNDFLCQTQERAEVMTMPDKNGRRPFPNSIRHLIPDFWKNFNFPDIVAALAPRPIILTEGGLDRDLDLVRKAYAIVGTPDNVKIYHYKKFSDPDTRKNVEYLPEGLDRNEYFRMVNVDGPNHYFKSELVVPWLRKLLEER", "test.value": "not failed"}
{"sequence.entry": "NQPKRALRYNKRFMGDRRYMSFWSWLTTGNFVNKEFSYYKVPMELDVFDQDAFAESGVPFYVVATDIKTGKPDYIKIDHVFEQMEALRASSALPLVSEIVEYKGKRYMDGGLADSLPI", "test.value": "failed"}

Task: # input sequence: MIGIVAAFEKVKIPEMGKSFGTGWLPPLPSLKDYTEESAQIPEMAEKLGIPTSRKETKTLELPVSIDFRNWCSPIEDQMDLGSCTAHAGVGVVEYFERRAFGKHIDGSRFFVYKTTRNLMGVKGDTGAWLRNTMGALALCGVPPEKYFPYTSRKTPGPDGEPTFDDEPSSFVYSLADNFEALNYFCHDPQGMNLPPEDVILSVKKYLAAGIPSMFGFYGFPSFKDTDVKGGIPFPGPDERSIWGHAVVAVGYDDNMKIRNTLSNKETTGAFLIRNSWGTAWGDKGYGWLPYEYALNKFALDFWSLISMKWVETGNFGLELESSRSRARETLSRDMPLPHALEHHHHHH ; wanted: its protein production
Output: not failed

Task: # input sequence: MGTDKFNNIKIDKYENLINVLKTGDIFLCSGNYLVSKLIKKVSESMFSHTGIIVKWGEHTLIMESVEDDGVRIVPLEHYIKNYENSNNRYNGSLFIARHELLQNVNDDSEMIRNLIKVGFSLLNSGYDKNEIAQIVARIGLGIGRHEDNNEYICSEFVNECFKKIGVEFLTDSEGFIFPEHIAADHHVLPIAQIE ; wanted: its protein production
Output: not failed

Task: # input sequence: MSDVIEGRLKELGFTLPVAAAPAANYVPFTISGNLLYVSGQLPMESGKIAVTGLVGRDVDVASAQRAAELCAVNILAQVKAALNGDLSKIRRVIKLNGFVASVPEFVEQHLVINGASNLIATVLGEPGRHARAAVGMASLPFNASVEIDAIVEIDV ; wanted: its protein production
Output: not failed

====

Test: label from the status in PepcDB records

{"sequence.entry": "MSCKKTEKFSETWFFKWILNNQAVVSFLILLLIGLTVLIFTKISPIFSPVIQFLTIVMLPLVISMLLYYLIKPLVLLVERTGLNRTMSILVIYAILALLLVWGISTAIPNLQDQILILLRNAPSYISRANSETERWLKLPILSNFHGDLEAMLSDFSARMINYAENFSTSALSWIGTFASTVARVTVAIILTPFILFYLLRDSQKLKHSFVSALPTRFRETTVRMLSDINNQLEGYVRGQVTVAIVIAIMFCIMFKIVGLRYGMTFGILAGFLNMIPYLGSFIAMVPVVIMGLVQGPTMLIKVLIIFVIEQTIEGRFVSPLVLGNKLSIHPITIMFILLTAGSLYGVWGVLLGIPIYASVKVIVKDIFDWYRSVSNLYQDDIEIKGQKYDVK", "protein production": "failed"}
{"sequence.entry": "MSRILITGAAGMVGRALLEELDEHDVFATDLVPPKATGAVTWLPMDVTTDDPDRIVGEVRPQVVIHLASIVTPGVARAVAHRVDVGGTRAVLDACLAHGVRRLVVTSSGAAYGYHADNPMPLRESDPLRGNPEFAYADHKRQVEEILAEARQSAPQLEQVVLRVGTVLGAGTENQITALFRKPRLLAVRGSESPFVFIWTRDLARILARAAGEGPAGIYNVAGDGAMGVSDLARALGKPVLRLPALTLKAALALARPLGLSRYGPEQVRFLQYRPVLANDALKQVFGYVPELASAEVFDLWRREAGL", "protein production": "failed"}

====

Assay: label from the status in PepcDB records
endpoint.label: protein production

The cases that follow already have their protein production on record.
{"sequence.entry": "MGVKFTLMGTTAGLGVPAFHCNCIACREARADPFWARTRSGAVLETGKENILIDASPDLSKQLLRERIQSVDYLFVTHWHYDHFGGIGDLEYYVKLERKWPVALFLPPSAVDDFAKVYPFLEEVFVIEPWEFGKSYAFEGIELTVLPARHSIETGGILLAGSKRAAYFTDTAGLPAPTARQLQGVDTLICDATFNGANWFPHSHMNWQEAIALGESIRAQHTVLTHLAMHYSTPITAAQLQEKLKDYAQVSLAYDGMVLTI", "protein production": "failed"}
{"sequence.entry": "MFMAKRYENMDNVSTKKSIRSFLRWRKERKQNKKDFSFLVEQSPVKQSAFLQSNVEKTTITWIGHSTFLIQTNGLNILTDPVWANKLKLVPRLTEPGLSIEALPKIDIVLISHGHYDHLDFSTLRQLNDDVLYLVPIGLKKLFTRKKFKHVEEYKWWESTIINEVSFHFVPSQHWTRRFLFDMNTSHWGGWIIDNETTMETIYFCGDSGYFQGFKEIGERFLIDIALMPIGAYEPEWFMKVSHVSPEEAVQAYLDLNATHFIPMHYGAFALADETPREAITRLRNNWNLRMLPWEQLHVLFLGQTFIYSNATNNKQIKEKIETLHV", "protein production": "failed"}
{"sequence.entry": "MSNKIITLEINLEPSDNHRLASLCGPFDDNIKHLERRLGVEINYRGNFFTIVGQPHTAAAALDIIKTLYVETAPVRGQITDIEPEQIHLAIKESGVLEQHSESSIAHGKEVFVKTKKGVIKPRTPNQAQYLMNMVTHDITFGVGPAGTGKTYLAVAAAVDALERQEIRRILLTRPAVEAGEKLGFLPGDLSQKVDPYLRPLYDALFEMLGFERVEKLIERNVIEVAPLAYMRGRTLNDAFIILDESQNTTVEQMKMFLTRIGFNSRAVITGDVTQIDLPRGAKSGLRHAIEVLNEVDEISFNFFQADDVVRHPVVARIVNAYEKWEAQDQKERKEYEQRRREERENKLLEMQRAEMTLSHNNESNPS", "protein production": "failed"}
{"sequence.entry": "MSIPKEQYNFNKLQKRLRRNVGQAIADFNMIEDGDKIMVCLSGGKDSYTLLSILMNLQKSAPIQFSLIAVNLDQKQPGFPEHILPEYLEQLGVEYKIVEENTYGIVKEIIPEGKTTCSLCSRLRRGILYRTATEVGATKIALGHHRDDILETLFLNMFYGGKLKGMPPKLMSDDGKHIVIRPLAYAREKDIERFAQAKNFPIIPCNLCGSQPNLQRQVIKEMLRDWDKRYPGRIETMFRATQNIVPSHLCDTQLFDFANIKQGDEIINGGDLAFDKDDIPTSPILSDDEDERPDFSQARLDVVEVK", "protein production": "not failed"}

# input for lookup
Task: # input sequence: MSVAAEVAQVAQSAIDDFNAAYGLCLDDDRLEQWPTLFVDDCLYQVIARENVDNGLPAAVMYCDSKGMLADRVVALRKANVFPEHFNRHLIGRAVITGVEGDQVSAEASYVVFQTRNDGETRIYNAGKYVDRFDLSGGTVRLKSRTCIYDTLRIATLLATPI ; wanted: its protein production
Output: not failed

Recorded values, source a protein production outcome set (Wang et al. 2014).
